# TARGET_OR_TEST_SYSTEM: HLA-A*0201 on T2A2 cells (Homo sapiens, UniProt P04439, D140Y/D185E/D98H/E176V/E277Q/G131W/G231S/I119V/I121R/I166T/I218V/L300P/L318F/N151K/N90K/P208A/P217A/Q86G/Q94H/R138H/R169H/T345S)
# Construct: T2A2 cells (1 × 10^6 cells/mL) resuspended in serum-free IMDM medium were seeded in 24-well plates; endogenous in cells; host or cells: T2A2 cells
# EXPERIMENT_SUMMARY: T2A2 cell binding affinity assay
# CONDITION_PARAMETERS: FI = [MFI of the peptide − MFI of the background]/[MFI of the background]; T2A2 cells, 50 μg/mL peptide + 3 μg/mL β2-M, 18 h
Would you kindly list FI (fluorescence index) for each of these sequences?
Answers are plain numbers.

ALDGLDLTV [Rv1218c-p24] ... 3.32
LLLSKPDLL [Rv2477c-p173, predicted HLA-A2-restricted 9-mer peptide … from MTB efflux pump antigen Rv2477c] ... 1.15
LMMPQTVTV [Rv2994-p223, predicted HLA-A2-restricted 9-mer peptide … from MTB efflux pump antigen Rv2994] ... 2.28
ILIGETIKI [COX-2-p321, reference compound] ... 2.11
RLTEELAWV [Rv2477c-p265, predicted HLA-A2-restricted 9-mer peptide … from MTB efflux pump antigen Rv2477c] ... 1.36

List the reported FI (fluorescence index) of each sequence below.
1. VLATGVTLV [Rv2209-p158, predicted HLA-A2-restricted 9-mer peptide … from MTB efflux pump antigen Rv2209]
2. SLVSQPPTL [Rv1218c-p280, predicted HLA-A2-restricted 9-mer peptide … from MTB efflux pump antigen Rv1218c]
3. LLDEPSSGL [Rv1218c-p158, predicted HLA-A2-restricted 9-mer peptide … from MTB efflux pump antigen Rv1218c]
4. RLGNVVVEV [Rv2477c-p316, predicted HLA-A2-restricted 9-mer peptide … from MTB efflux pump antigen Rv2477c]

Output:
2.54
1.62
2.35
1.58

List the reported FI (fluorescence index) of each sequence below.
1. TLFKTIVGL [Rv2477c-p362, predicted HLA-A2-restricted 9-mer peptide … from MTB efflux pump antigen Rv2477c]
2. YLLGGTVVV [Rv1877-p71, predicted HLA-A2-restricted 9-mer peptide … from MTB efflux pump antigen Rv1877]
3. GLDPLMENV [Rv1218c-p165, predicted HLA-A2-restricted 9-mer peptide … from MTB efflux pump antigen Rv1218c]
4. ALCEKVTII [Rv1218c-p200, predicted HLA-A2-restricted 9-mer peptide … from MTB efflux pump antigen Rv1218c]

Output:
[1.72, 2.17, 2.6, 1.75]

Every entry's value here was drawn from paper PMC7803423.
